Tested on: 439559-082-T-J2-PDC spheroids viability
Test: Anticancer human tumor 439559-082-T-J2-PDC patient-derived colon adenocarcinoma cell line growth inhibition [GQUAD]
Settings: second compound 0.0316 µM; first compound 1 µM; stronger effect = lower value
The label y is reserved for viability, T/C strictly under 80%; n covers values equal to or above it.

Inquiry: viability, T/C strictly < 80% for this compound? CC1COCCN1c1cc(C2(O)CC3CCC(C2)O3)c2cnn(-c3ccn[nH]3)c2n1 (stereo unspecified) + Cc1[nH]c2ccc(F)cc2c1-c1nc2c3cccnc3c3ncccc3c2[nH]1
Reply text: y

Inquiry: viability, T/C strictly < 80% for this compound? COc1ncnc(C2CC2)c1-c1ncc2cnn(Cc3ccc(-c4nc(C(F)(F)F)cn4C(C)C)cc3)c2n1 + Cc1[nH]c2ccc(F)cc2c1-c1nc2c3cccnc3c3ncccc3c2[nH]1
Reply text: n

Inquiry: viability, T/C strictly < 80% for this compound? Cc1cccc(N(C)C(=O)C2C(O)CCN2c2nc(C)cc(C(F)(F)F)c2C#N)c1 (stereo unspecified) + CN(C)c1ccc(Nc2c3ccc(NC(=O)CCN4CCCC4)cc3nc3cc(NC(=O)CCN4CCCC4)ccc23)cc1
Reply text: n

Inquiry: viability, T/C strictly < 80% for this compound? O=C(NO)c1cnc(N2CCN(S(=O)(=O)c3ccc4ccccc4c3)CC2)nc1 + Cc1[nH]c2ccc(F)cc2c1-c1nc2c3cccnc3c3ncccc3c2[nH]1
Reply text: y

Inquiry: viability, T/C strictly < 80% for this compound? Nc1ccn(C2OC(CO)C(O)C2(F)F)c(=O)n1 (stereo unspecified) + Cc1[nH]c2ccc(F)cc2c1-c1nc2c3cccnc3c3ncccc3c2[nH]1
Reply text: y

Inquiry: viability, T/C strictly < 80% for this compound? Nc1ccn(C2OC(CO)C(O)C2(F)F)c(=O)n1 (stereo unspecified) + CN(C)c1ccc(Nc2c3ccc(NC(=O)CCN4CCCC4)cc3nc3cc(NC(=O)CCN4CCCC4)ccc23)cc1
Reply text: y

Inquiry: viability, T/C strictly < 80% for this compound? Cc1cccc(N(C)C(=O)C2C(O)CCN2c2nc(C)cc(C(F)(F)F)c2C#N)c1 (stereo unspecified) + Cc1cnc(CNC(=O)c2c(=O)c3ccc(N4CCCN(C)CC4)nc3n3c2sc2ccccc23)cn1
Reply text: n

Inquiry: viability, T/C strictly < 80% for this compound? Cc1cccc(N(C)C(=O)C2C(O)CCN2c2nc(C)cc(C(F)(F)F)c2C#N)c1 (stereo unspecified) + Cc1[nH]c2ccc(F)cc2c1-c1nc2c3cccnc3c3ncccc3c2[nH]1
Reply text: n

Inquiry: viability, T/C strictly < 80% for this compound? COc1ncnc(C2CC2)c1-c1ncc2cnn(Cc3ccc(-c4nc(C(F)(F)F)cn4C(C)C)cc3)c2n1 + CN(C)c1ccc(Nc2c3ccc(NC(=O)CCN4CCCC4)cc3nc3cc(NC(=O)CCN4CCCC4)ccc23)cc1
Reply text: n

Inquiry: viability, T/C strictly < 80% for this compound? CC1COCCN1c1cc(-c2ccnn2C)c2ccnc(-c3ccn[nH]3)c2n1 (stereo unspecified) + CN(C)c1ccc(Nc2c3ccc(NC(=O)CCN4CCCC4)cc3nc3cc(NC(=O)CCN4CCCC4)ccc23)cc1
Reply text: y

Inquiry: viability, T/C strictly < 80% for this compound? COc1cccc2c1C(=O)c1c(O)c3c(c(O)c1C2=O)CC(O)(C(=O)CO)CC3OC1CC(N)C(O)C(C)O1 (stereo unspecified) + CN(C)c1ccc(Nc2c3ccc(NC(=O)CCN4CCCC4)cc3nc3cc(NC(=O)CCN4CCCC4)ccc23)cc1
Reply text: y

* * *

Test system: 439559-082-T-J2-PDC spheroids viability
Test: Anticancer human tumor 439559-082-T-J2-PDC cell line growth inhibition [GQUAD];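 further: spheroids exposed to the agents for 7 days before readout; percent of luminescence signal in DMSO vehicle wells taken as 100% viability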
Conditions: second compound 0.0316 µM; first compound 3.16 µM; stronger effect = lower value
Text: DNA G-quadruplex Stabilizer Agents in Combinations in Complex Spheroids A high-throughput screen of multi-cell type tumor spheroids was designed to identify active combinations of DNA G-quadruplex stabilizer agents and targeted small molecules. […] Compounds. […] If the clinical Cmax for an agent had not been determined, the highest concentration tested was 10 microM. […]
assayEndpoint: viability, T/C (%)
Use % as the unit, but write only the number.

Inquiry: Return viability, T/C for the following molecule: CCCS(=O)(=O)Nc1ccc(F)c(C(=O)c2c[nH]c3ncc(-c4ccc(Cl)cc4)cc23)c1F + CN(C)c1ccc(Nc2c3ccc(NC(=O)CCN4CCCC4)cc3nc3cc(NC(=O)CCN4CCCC4)ccc23)cc1
Reply text: 116

Inquiry: Return viability, T/C for the following molecule: C=CC(=O)N1CCN(c2nc(=O)n(-c3c(C)ccnc3C(C)C)c3nc(-c4c(O)cccc4F)c(F)cc23)C(C)C1 (stereo not given) + Cc1cnc(CNC(=O)c2c(=O)c3ccc(N4CCCN(C)CC4)nc3n3c2sc2ccccc23)cn1
Reply text: 95.6

Inquiry: Return viability, T/C for the following molecule: C=CCn1c(=O)c2cnc(Nc3ccc(N4CCN(C)CC4)cc3)nc2n1-c1cccc(C(C)(C)O)n1 + CN(C)c1ccc(Nc2c3ccc(NC(=O)CCN4CCCC4)cc3nc3cc(NC(=O)CCN4CCCC4)ccc23)cc1
Reply text: 63.3

Inquiry: Return viability, T/C for the following molecule: CC(C)n1c(=O)n(C)c2cnc3cc(F)c(-c4ccc(OCCCN5CCCCC5)nc4)cc3c21 + Cc1cnc(CNC(=O)c2c(=O)c3ccc(N4CCCN(C)CC4)nc3n3c2sc2ccccc23)cn1
Reply text: 94.2

Inquiry: Return viability, T/C for the following molecule: O=C(NO)c1cnc(N2CCN(S(=O)(=O)c3ccc4ccccc4c3)CC2)nc1 + Cc1[nH]c2ccc(F)cc2c1-c1nc2c3cccnc3c3ncccc3c2[nH]1
Reply text: 44.6

* * *

Tested on: 439559-082-T-J2-PDC spheroids viability
Experiment: Anticancer human tumor 439559-082-T-J2-PDC cell line growth inhibition [GQUAD];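 further: spheroids exposed to the agents for 7 days before readout; percent of luminescence signal in DMSO vehicle wells taken as 100% viability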
Settings: second compound 1 µM; first compound 3.16 µM; stronger effect = lower value
Excerpt: DNA G-quadruplex Stabilizer Agents in Combinations in Complex Spheroids A high-throughput screen of multi-cell type tumor spheroids was designed to identify active combinations of DNA G-quadruplex stabilizer agents and targeted small molecules. […] Compounds. […] If the clinical Cmax for an agent had not been determined, the highest concentration tested was 10 microM. […]
The label True is reserved for viability, T/C strictly under 60%; False covers values equal to or above it.

Inquiry: viability, T/C strictly < 60% for this compound? COc1ncnc(C2CC2)c1-c1ncc2cnn(Cc3ccc(-c4nc(C(F)(F)F)cn4C(C)C)cc3)c2n1 + CN(C)c1ccc(Nc2c3ccc(NC(=O)CCN4CCCC4)cc3nc3cc(NC(=O)CCN4CCCC4)ccc23)cc1
Reply text: False

Inquiry: viability, T/C strictly < 60% for this compound? CCCS(=O)(=O)Nc1ccc(F)c(C(=O)c2c[nH]c3ncc(-c4ccc(Cl)cc4)cc23)c1F + CN(C)c1ccc(Nc2c3ccc(NC(=O)CCN4CCCC4)cc3nc3cc(NC(=O)CCN4CCCC4)ccc23)cc1
Reply text: False

Inquiry: viability, T/C strictly < 60% for this compound? C=CC(=O)N1CCN(c2nc(=O)n(-c3c(C)ccnc3C(C)C)c3nc(-c4c(O)cccc4F)c(F)cc23)C(C)C1 (stereo unspecified) + Cc1cnc(CNC(=O)c2c(=O)c3ccc(N4CCCN(C)CC4)nc3n3c2sc2ccccc23)cn1
Reply text: False

Inquiry: viability, T/C strictly < 60% for this compound? COc1cc(C2c3cc4c(cc3C(OC3OC5COC(C)OC5C(O)C3O)C3COC(=O)C23)OCO4)cc(OC)c1O (stereo unspecified) + Cc1cnc(CNC(=O)c2c(=O)c3ccc(N4CCCN(C)CC4)nc3n3c2sc2ccccc23)cn1
Reply text: False

Inquiry: viability, T/C strictly < 60% for this compound? Cc1cccc(N(C)C(=O)C2C(O)CCN2c2nc(C)cc(C(F)(F)F)c2C#N)c1 (stereo unspecified) + Cc1[nH]c2ccc(F)cc2c1-c1nc2c3cccnc3c3ncccc3c2[nH]1
Reply text: False

Inquiry: viability, T/C strictly < 60% for this compound? Cc1cccc(N(C)C(=O)C2C(O)CCN2c2nc(C)cc(C(F)(F)F)c2C#N)c1 (stereo unspecified) + Cc1cnc(CNC(=O)c2c(=O)c3ccc(N4CCCN(C)CC4)nc3n3c2sc2ccccc23)cn1
Reply text: False

Inquiry: viability, T/C strictly < 60% for this compound? CC1COCCN1c1cc(-c2ccnn2C)c2ccnc(-c3ccn[nH]3)c2n1 (stereo unspecified) + Cc1[nH]c2ccc(F)cc2c1-c1nc2c3cccnc3c3ncccc3c2[nH]1
Reply text: True

Inquiry: viability, T/C strictly < 60% for this compound? O=c1[nH]cc(F)c(=O)[nH]1 + Cc1cnc(CNC(=O)c2c(=O)c3ccc(N4CCCN(C)CC4)nc3n3c2sc2ccccc23)cn1
Reply text: False

Inquiry: viability, T/C strictly < 60% for this compound? O=C(c1cc(Cc2n[nH]c(=O)c3ccccc23)ccc1F)N1CCN(C(=O)C2CC2)CC1 + CN(C)c1ccc(Nc2c3ccc(NC(=O)CCN4CCCC4)cc3nc3cc(NC(=O)CCN4CCCC4)ccc23)cc1
Reply text: False

Inquiry: viability, T/C strictly < 60% for this compound? C=CCn1c(=O)c2cnc(Nc3ccc(N4CCN(C)CC4)cc3)nc2n1-c1cccc(C(C)(C)O)n1 + CN(C)c1ccc(Nc2c3ccc(NC(=O)CCN4CCCC4)cc3nc3cc(NC(=O)CCN4CCCC4)ccc23)cc1
Reply text: True

Inquiry: viability, T/C strictly < 60% for this compound? CC1COCCN1c1cc(C2(O)CC3CCC(C2)O3)c2cnn(-c3ccn[nH]3)c2n1 (stereo unspecified) + Cc1cnc(CNC(=O)c2c(=O)c3ccc(N4CCCN(C)CC4)nc3n3c2sc2ccccc23)cn1
Reply text: True

Inquiry: viability, T/C strictly < 60% for this compound? CC(C)n1c(=O)n(C)c2cnc3cc(F)c(-c4ccc(OCCCN5CCCCC5)nc4)cc3c21 + Cc1cnc(CNC(=O)c2c(=O)c3ccc(N4CCCN(C)CC4)nc3n3c2sc2ccccc23)cn1
Reply text: False

Inquiry: viability, T/C strictly < 60% for this compound? CCCS(=O)(=O)Nc1ccc(F)c(C(=O)c2c[nH]c3ncc(-c4ccc(Cl)cc4)cc23)c1F + Cc1cnc(CNC(=O)c2c(=O)c3ccc(N4CCCN(C)CC4)nc3n3c2sc2ccccc23)cn1
Reply text: False

Inquiry: viability, T/C strictly < 60% for this compound? COc1ccc([C@@H](O)c2cc(-c3ncnc4cc(N5CCOCC5)ccc34)c(F)cc2Cl)nn1 + Cc1cnc(CNC(=O)c2c(=O)c3ccc(N4CCCN(C)CC4)nc3n3c2sc2ccccc23)cn1
Reply text: False

Inquiry: viability, T/C strictly < 60% for this compound? Cc1cccc(N(C)C(=O)C2C(O)CCN2c2nc(C)cc(C(F)(F)F)c2C#N)c1 (stereo unspecified) + CN(C)c1ccc(Nc2c3ccc(NC(=O)CCN4CCCC4)cc3nc3cc(NC(=O)CCN4CCCC4)ccc23)cc1
Reply text: False

Inquiry: viability, T/C strictly < 60% for this compound? CC(C)n1c(=O)n(C)c2cnc3cc(F)c(-c4ccc(OCCCN5CCCCC5)nc4)cc3c21 + CN(C)c1ccc(Nc2c3ccc(NC(=O)CCN4CCCC4)cc3nc3cc(NC(=O)CCN4CCCC4)ccc23)cc1
Reply text: False

Inquiry: viability, T/C strictly < 60% for this compound? O=C(NO)c1cnc(N2CCN(S(=O)(=O)c3ccc4ccccc4c3)CC2)nc1 + Cc1cnc(CNC(=O)c2c(=O)c3ccc(N4CCCN(C)CC4)nc3n3c2sc2ccccc23)cn1
Reply text: True

Inquiry: viability, T/C strictly < 60% for this compound? COc1cc(C2c3cc4c(cc3C(OC3OC5COC(C)OC5C(O)C3O)C3COC(=O)C23)OCO4)cc(OC)c1O (stereo unspecified) + Cc1[nH]c2ccc(F)cc2c1-c1nc2c3cccnc3c3ncccc3c2[nH]1
Reply text: False

Inquiry: viability, T/C strictly < 60% for this compound? CC(C)n1c(=O)n(C)c2cnc3cc(F)c(-c4ccc(OCCCN5CCCCC5)nc4)cc3c21 + Cc1[nH]c2ccc(F)cc2c1-c1nc2c3cccnc3c3ncccc3c2[nH]1
Reply text: False

Inquiry: viability, T/C strictly < 60% for this compound? Nc1ccn(C2OC(CO)C(O)C2(F)F)c(=O)n1 (stereo unspecified) + CN(C)c1ccc(Nc2c3ccc(NC(=O)CCN4CCCC4)cc3nc3cc(NC(=O)CCN4CCCC4)ccc23)cc1
Reply text: True

Inquiry: viability, T/C strictly < 60% for this compound? CC1COCCN1c1cc(C2(O)CC3CCC(C2)O3)c2cnn(-c3ccn[nH]3)c2n1 (stereo unspecified) + CN(C)c1ccc(Nc2c3ccc(NC(=O)CCN4CCCC4)cc3nc3cc(NC(=O)CCN4CCCC4)ccc23)cc1
Reply text: True
